# Tested on: HEK293
# test.method.notes: Cytotoxic Profiling of Annotated Libraries Using Quantitative High-Throughput Screening (AID 1296008); also: % is scaled to controls: 0 for no effect and ±100 for the full control effect; nearly all actives have a fitted effect of over 60% in size
# conditions: Five cell lines viability, CellTiter-Glo ATP luminescence, 48-72 h; hits give low values
Results filed as inconclusive are left out.
measured.endpoint: max response (%)

- compound: "COc1ccc(Cl)c(Nc2nc3ccccc3nc2NS(=O)(=O)c2cccc(NC(=O)C(C)(C)N)c2)c1"
  reported.value: -13.5
- compound: "COc1cc(O)cc(/C=C/c2ccc(O[C@@H]3O[C@H](CO)[C@@H](O)[C@H](O)[C@H]3O)cc2)c1"
  reported.value: -4.02
- compound: "COCCOc1cnc2ccn([C@H](C)c3nnc4c(F)cc(-c5cnn(C)c5)cn34)c(=O)c2c1"
  reported.value: 1.47
- compound: "Cc1cc(C(=O)Nc2cccc(C(=O)Nc3cccc(C(F)(F)F)c3)c2)on1"
  reported.value: 2.99
- compound: "CC1=C(/C=C/C(C)=C\\C=C\\C(C)=C/C(=O)O)C(C)(C)CCC1"
  reported.value: 0.159
- compound: "O=C(O)c1cccc(S(=O)(=O)N2CCc3ccccc3C2)c1"
  reported.value: -4.38
- compound: "COCC1OC(OC(C)(C)C2CCC3(C)C=C(C4CCC5C4(C)CC(O)C4OC(C(C)(C)OC6OC(CO)C(O)C(O)C6NC(C)=O)CCC45C)CCC3O2)C(NC(C)=O)C(O)C1O (centres undefined)"
  reported.value: -5.83
- compound: "CC1(CCOC2OC(CO)C(O)C(O)C2O)CCC23OC2(C1)C(O)CC1C(C)(C(=O)O)CCCC13C (centres undefined)"
  reported.value: -6.41
- compound: "C/C=C/C=C/C(O)=C1\\C(=O)[C@]2(C)C3C(C(=O)CC/C=C/C)=C(O)C4(C)C1[C@]1(C)O[C@@]4(O)[C@@]3(C)O[C@@]12O"
  reported.value: -0.736
- compound: "COc1ccc(C(=O)C2CCN(CC(=O)N(Cc3nc4c(c(=O)[nH]3)COCC4)CC3CC3)CC2)cc1"
  reported.value: -4.04
- compound: "C/C1=C\\CCC(C)CCO[C@@H]2O[C@H](CO[C@@H]3OC[C@H](O)[C@H](O)[C@H]3OC1=O)[C@@H](O)[C@H](O)[C@H]2O (some centres undefined)"
  reported.value: 2.77
- compound: "CCO[C@@H]1OC(=O)C[C@@H]1NC(=O)[C@@H]1CCCN1C(=O)[C@@H](NC(=O)c1ccc(N)c(Cl)c1)C(C)(C)C"
  reported.value: 1.39
- compound: "C=C1[C@@H]2CC[C@@H]3[C@@](CCC4C(C(=O)O)(C(=O)O)C[C@@H](O[C@@H]5O[C@H](CO)[C@@H](O)[C@H](O)[C@H]5OC(=O)CC(C)C)C[C@]43C)(C2)[C@H]1O (some centres undefined)"
  reported.value: -0.701
- compound: "CC(C)(C)NS(=O)(=O)c1cncc(-c2cc(F)c3nc(N)nn3c2)c1"
  reported.value: -1.27
- compound: "CC(C)(C)c1ccc(S(=O)(=O)Nc2ccc(Cl)cc2C(=O)c2cc[n+]([O-])cc2)cc1"
  reported.value: -2.23
- compound: "C[C@@H](O)[C@H](NC(=O)c1ccc(C#Cc2ccc(CN3CCOCC3)cc2)cc1)C(=O)NO"
  reported.value: -16.7
- compound: "C[C@@H]1O[C@@H](O[C@H]2[C@H](OC(=O)[C@]34CCC(C)(C)C[C@H]3C3=CCC5[C@@]6(C)C[C@H](O)[C@H](O[C@@H]7O[C@H](CO)[C@@H](O)[C@H](O)[C@H]7O)[C@@](C)(CO)C6[C@H](O)C[C@@]5(C)[C@]3(C)CC4)OC[C@H](O)[C@@H]2O)[C@H](O)[C@H](O)[C@H]1O[C@@H]1OC[C@@H](O)[C@H](O[C@@H]2OC[C@](O)(CO)[C@H]2O)[C@H]1O (some centres undefined)"
  reported.value: -1.81
- compound: "CC(=O)C1=CCC2C3CCC4CC(O[C@@H]5O[C@H](CO)[C@@H](O[C@@H]6O[C@@H](C)[C@H](O)[C@@H](O)[C@H]6O)[C@H](O)[C@H]5O[C@@H]5O[C@H](CO)[C@@H](O)[C@H](O)[C@H]5O)CCC4(C)C3CCC12C (some centres undefined)"
  reported.value: -11.1
- compound: "CCCCNc1ncc2c(-c3ccc(F)cc3)nn(CC3CCC(N)CC3)c2n1 (centres undefined)"
  reported.value: -110
- compound: "COC1CC(OC2CCC3(C)C(=CCC4C3C(OC(C)=O)C(OC(=O)/C=C/c3ccccc3)C3(C)C(C(C)O)CCC43O)C2)OC(C)C1OC1CC(OC)C(OC2OC(C)C(OC3OC(CO)C(O)C(O)C3O)C(OC)C2O)C(C)O1 (centres undefined)"
  reported.value: -2.45
- compound: "C=C(C)C1CC[C@]2(C(=O)O)CC[C@]3(C(=O)O)[C@H](CCC4[C@@]5(C)CC[C@H](O)C(C)(C)C5CC[C@]43C)C12 (some centres undefined)"
  reported.value: -5.51
- compound: "CC(C)(O)/C=C/CC(C)(O)C1C(O)CC2(C)C3CCC4C(C)(C)C(=O)CCC4(C)C3CCC12C (centres undefined)"
  reported.value: 1.96
- compound: "C/C=C1\\[C@H](O[C@@H]2O[C@H](CO)[C@@H](O)[C@H](O)[C@H]2O)OC=C(C(=O)OC)[C@H]1CC(=O)O"
  reported.value: 3.99
- compound: "CC(=O)OC1C(OC(=O)c2ccccc2)C2C(C)(C)CC(=O)CC2(C)C23CCC(C)(C2)C(O)CC13 (centres undefined)"
  reported.value: -15.7
- compound: "C=C1CCC2C(C)(C)C(O)CCC2(C)C1CCC(C)CCOC(C)=O (centres undefined)"
  reported.value: -19.2
- compound: "Cc1nc(C)c(-c2ccc(C3CCC(CC(=O)O)CC3)cc2)nc1C(N)=O (centres undefined)"
  reported.value: -0.422
- compound: "OC[C@H]1O[C@@H](OC(CCCCc2ccc(O)cc2)CCc2ccc(O)cc2)[C@H](O)[C@@H](O)[C@@H]1O (some centres undefined)"
  reported.value: -49.4
- compound: "CC/C=C\\CCO[C@@H]1O[C@H](CO)[C@@H](O)[C@H](O)[C@H]1O"
  reported.value: 0.0515
- compound: "O=C(Cc1ccc(-c2ccccc2)cc1)NC1CCC1"
  reported.value: 2.52

* * *

# test.method.notes: Primary qHTS for inhibitors of nuclear receptor binding SET domain protein 2 (NSD2) in an isogenic RCH-ACV NSD2 p.E1099K mutant (9B) (AID 1645876); also: nearly all actives have a fitted effect of over 70% in size
# conditions: RCH-ACV (leukaemia line) NSD2 E1099K (9B) viability, CellTiter-Glo, 72 h; series mostly up to 44.9 µM
Inconclusive results are not listed. Active and inactive are the calls of the source. The call rests on the fitted dose curve; in most records, active means well fitted inhibition curve with a large enough effect; inconclusive means small, poorly fitted or top-dose-only effect; inactive means flat fitted curve, though single readings scatter.
Possible outcomes: 1 (yes) = active, 0 (no) = inactive

- molecule: "CC1=CCC(C(C)(C)O[C@@H]2O[C@H](CO[C@@H]3O[C@@H](C)[C@H](O)[C@@H](O)[C@H]3O)[C@@H](O)[C@H](O)[C@H]2O)CC1 (some centres undefined)"
  assigned.class: "0 (no)"
- molecule: "C[C@@H]1C[C@@H]2O[C@H]2/C=C\\C=C\\C(=O)Cc2c(Cl)c(O)cc(O)c2C(=O)O1"
  assigned.class: "1 (yes)"
- molecule: "O=C(/C=C/c1ccccc1)OC[C@]12O[C@H]1[C@@H](O)[C@@H]1C=CO[C@@H](O[C@@H]3O[C@H](CO)[C@@H](O)[C@H](O)[C@H]3O)[C@@H]12"
  assigned.class: "0 (no)"
- molecule: "O=C1OCC(c2ccccc2)=C1Cc1ccccc1"
  assigned.class: "0 (no)"

* * *

Catalogue of activity change, negative = cytotoxicity readings, one per entry.
# System: Es-2
# test.method.notes: Primary qHTS to identify gynecologic anti-cancer compounds using libraries of approved drugs and bioactive compounds (AID 1345084); also: % is scaled to controls: 0 for no effect and ±100 for the full control effect; nearly all actives have a fitted effect of over 55% in size
# conditions: Gynecologic cancer cell panel viability, ATPlite luminescence, 48 h; series mostly up to 57.5 µM
Inconclusive results are not listed. Active and inactive are the calls of the source. Calls follow the shape of the dose curve; as a rule, active = well fitted cell-killing curve with a large enough effect; inconclusive = small, poorly fitted or top-dose-only effect, or effect the other way; inactive = flat fitted curve, though single readings scatter.

- molecule: "C[C@@H]1O[C@@H](O[C@H]2[C@H](O)[C@@H](C(=O)O)O[C@@H](O[C@H]3CC[C@@]4(C)C(CC[C@]5(C)C4CC=C4C6CC(C)(C)CC[C@]6(C(=O)O)CC[C@]45C)C3(C)C)[C@@H]2O[C@@H]2OC[C@@H](O)[C@H](O)[C@H]2O)[C@H](O)[C@H](O)[C@H]1O (stereo partly drawn)"
  target: "Es-2"
  activity change, negative = cytotoxicity: "-1.84% [at 11.6 µM] (inactive)"
- molecule: "C[C@@H]1CC[C@]2(C(=O)O[C@@H]3O[C@H](CO)[C@@H](O)[C@H](O)[C@H]3O)CC[C@]3(C)C(=CCC4[C@@]5(C)C[C@@H](O)[C@H](O)[C@@](C)(C(=O)O[C@H]6[C@H](O)C[C@@]7(C)C(CC[C@]8(C)C7CC=C7[C@H]9[C@](C(=O)O[C@@H]%10O[C@H](CO)[C@@H](O)[C@H](O)[C@H]%10O)(CC[C@@H](C)[C@@]9(C)O)CC[C@]78C)[C@@]6(CO)C(=O)O)C5CC[C@]43C)[C@@H]2[C@]1(C)O (stereo partly drawn)"
  target: "Es-2"
  activity change, negative = cytotoxicity: "-0.958% [at 6.55 µM] (inactive)"
- molecule: "CC(CCC1(O)OC2CC3C4CCC5CC(O[C@@H]6O[C@H](CO)[C@@H](O)[C@H](O)[C@H]6O[C@@H]6O[C@@H](C)[C@H](O)[C@@H](O)[C@H]6O)C(O)CC5(C)C4CCC3(C)C2C1C)CO[C@@H]1O[C@H](CO)[C@@H](O)[C@H](O)[C@H]1O (stereo partly drawn)"
  target: "Es-2"
  activity change, negative = cytotoxicity: "-3.1% [at 11.6 µM] (inactive)"
